# Test system: MOLT-4 cells
# assay-method-text: Inhibitory activity on MOLT4 cell proliferation by Cell Titer-Glo method
# Assay type: cell-based
# condition: Homo sapiens, 72 hours incubation, read-out: IC50 concentration for inhibiting MOLT-4 cells
pIC50: −log10 of the molar value.
For each entry below, report its pIC50 value.

A selection of reference data follows.
| compound | pIC50 |
| --- | --- |
| CNc1nc(-c2cnc3ccccc3c2)nc2c1CCN(C(=O)c1ccc(/C=C/c3ccc(C#CCN4CCN(CCCCC#Cc5cccc6c5CN(C5CCC(=O)NC5=O)C6=O)CC4)cc3)cc1)C2 (stereo not shown) [Compound D2-7] | 3.70 to 4.00 |
| C=Cc1cc(-c2ncc3c(n2)CN(C(=O)c2ccc(/C=C/c4ccc(C#CCN5CCN(CCCCCOc6cccc7c6C(=O)N(C6CCC(=O)NC6=O)C7=O)CC5)cc4)cc2)CC3)cnc1C=C (stereo not shown) [Compound C3-2] | 3.70 to 4.00 |
| O=C1CCC(N2C(=O)c3ccc(N4CCN(CC5CCN(CC#Cc6ccc(OCC78CC(C(=O)N9CCc%10cnc(-c%11cnc%12ccccc%12c%11)nc%10C9)(C7)C8)cc6)CC5)CC4)cc3C2=O)C(=O)N1 (stereo not shown) [Compound F1B-4] | 5.00 to 6.00 |
| C/C=c1/cc(-c2ncc3c(n2)CN(C(=O)c2ccc(/C=C/c4ccc(C#CCN5CCN(CCCCCOc6cccc7c6CN(C6CCC(=O)NC6=O)C7=O)CC5)cc4)cc2)CC3)cn/c1=C/C (stereo not shown) [Compound C3-4] | 3.70 to 4.00 |
| O=C1CCC(N2Cc3c(C#CCCCCN4CCN(CC#Cc5ccc(/C=C/c6ccc(C(=O)N7CCc8cnc(-c9cnc%10ccccc%10c9)nc8C7)cc6)cc5)CC4)cccc3C2=O)C(=O)N1 (stereo not shown) [Compound D2-5] | 3.70 to 4.00 |

Take each entry in turn and give its pIC50.
1. CNc1nc(-c2cnc3ccccc3c2)nc2c1CCN(C(=O)c1ccc(/C=C/c3ccc(C#CCN4CCN(CC5CCN(c6ccc7c(c6)CN(C6CCC(=O)NC6=O)C7=O)CC5)CC4)cc3)cc1)C2 (stereo not shown) [Compound F2-8]
2. C=Cc1cc(-c2nc3c(c(NC)n2)CCN(C(=O)c2ccc(COc4ccc(C#CCN5CCN(CCCCCOc6cccc7c6C(=O)N(C6CCC(=O)NC6=O)C7=O)CC5)cc4)cc2)C3)cnc1C=C (stereo not shown) [Compound C3-16]

5.00 to 6.00
4.00 to 4.30

// input: 6 compounds below; output: pIC50 for each
1. C=Cc1cc(-c2nc3c(c(NC)n2)CCN(C(=O)c2ccc(COc4ccc(C#CCN5CCN(CCCNc6cccc7c6C(=O)N(C6CCC(=O)NC6=O)C7=O)CC5)cc4)cc2)C3)cnc1C=C (stereo not shown) [Compound C2-6]
2. C/C=c1/cc(-c2ncc3c(n2)CN(C(=O)c2ccc(/C=C/c4ccc(C#CCN5CCN(CCCCCCc6cccc7c6CN(C6CCC(=O)NC6=O)C7=O)CC5)cc4)cc2)CC3)cn/c1=C/C (stereo not shown) [Compound C1-2]
3. O=C1CCC(N2Cc3cc(C#CCCCN4CCN(CC#Cc5ccc(/C=C/c6ccc(C(=O)N7CCc8cnc(-c9cnc%10ccccc%10c9)nc8C7)cc6)cc5)CC4)ccc3C2=O)C(=O)N1 (stereo not shown) [Compound D2-3]
4. O=C1CCC(N2Cc3c(CCCN4CCC(N5CCN(CC#Cc6ccc(/C=C/c7ccc(C(=O)N8CCc9cnc(-c%10cnc%11ccccc%11c%10)nc9C8)cc7)cc6)CC5)CC4)cccc3C2=O)C(=O)N1 (stereo not shown) [Compound F2-6]
5. CNc1nc(-c2cnc3ccccc3c2)nc2c1CCN(C(=O)c1ccc(/C=C/c3ccc(C#CCN4CCN(CCC#Cc5cccc(N6CCC(=O)NC6=O)c5)CC4)cc3)cc1)C2 [Compound H1-1]
6. C=Cc1cc(-c2ncc3c(n2)CN(C(=O)c2ccc(COc4ccc(C#CCN5CCN(CCCCCOc6cccc7c6C(=O)N(C6CCC(=O)NC6=O)C7=O)CC5)cc4)nc2)CC3)cnc1C=C (stereo not shown) [Compound C3-12]

5.00 to 6.00
< 3.70
< 3.70
3.70 to 4.00
> 6.00
4.00 to 4.30

For each listed entry, give its pIC50.
1. O=C1CCC(N2Cc3c(OC4CC5(C4)CN(C4CCN(CC#Cc6ccc(/C=C/c7ccc(C(=O)N8CCc9cnc(-c%10cnc%11ccccc%11c%10)nc9C8)cc7)cc6)CC4)C5)cccc3C2=O)C(=O)N1 (stereo not shown) [Compound F3B-2]
2. O=C1CCC(N2Cc3cc(N4CCC(N5CCN(CC#Cc6ccc(/C=C/c7ccc(C(=O)N8CCc9cnc(-c%10cnc%11ccccc%11c%10)nc9C8)cc7)cc6)CC5)CC4)ccc3C2=O)C(=O)N1 (stereo not shown) [Compound F2-3]
3. C=Cc1cc(-c2nc3c(c(NC)n2)CCN(C(=O)c2ccc(COc4ccc(C#CCN5CCN(CCCCCOc6cccc7c6C(=O)N(C6CCC(=O)NC6=O)C7=O)CC5)cc4)cn2)C3)cnc1C=C (stereo not shown) [Compound C3-11]
4. CNc1nc(-c2cnc3ccccc3c2)nc2c1CCN(C(=O)c1ccc(/C=C/c3ccc(C#CCN4CCC(CN5CCN(c6cc7c(cc6F)C(=O)N(C6CCC(=O)NC6=O)C7=O)CC5)CC4)cc3)cc1)C2 (stereo not shown) [Compound F1B-3]

1. 4.00 to 4.30
2. 5.00 to 6.00
3. 3.70 to 4.00
4. 4.00 to 4.30

Please go through the list and note pIC50 for each compound.
1. CNc1nc(-c2cnc3ccccc3c2)nc2c1CCN(C(=O)c1ccc(/C=C/c3ccc(C#CCN4CCN(C(=O)CC(=O)N[C@H](C(=O)N5C[C@H](O)C[C@H]5C(=O)N[C@@H](C)c5ccc(-c6scnc6C)cc5)C(C)(C)C)CC4)cc3)cc1)C2 [Compound G2-1]
2. CNc1nc(-c2cnc3ccccc3c2)nc2c1CCN(C(=O)c1ccc(/C=C/c3ccc(C#CCN4CCN(C5CCN(c6ccc7c(c6)CN(C6CCC(=O)NC6=O)C7=O)CC5)CC4)cc3)cc1)C2 (stereo not shown) [Compound F2-7]

1: < 3.70; 2: 5.00 to 6.00

====

# test-target: ternary complex between BCL-XL and CRBN-DDB1 (Homo sapiens, UniProt Q07817+Q96SW2)
# Sequence (Q07817 whole entry): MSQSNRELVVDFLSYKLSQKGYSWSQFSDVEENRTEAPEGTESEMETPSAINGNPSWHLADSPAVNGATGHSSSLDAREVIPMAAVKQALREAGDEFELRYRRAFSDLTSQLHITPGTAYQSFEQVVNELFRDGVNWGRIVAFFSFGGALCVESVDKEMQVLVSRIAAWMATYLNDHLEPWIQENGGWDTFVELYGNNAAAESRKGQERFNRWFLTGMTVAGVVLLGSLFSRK
# Sequence (Q96SW2 whole entry): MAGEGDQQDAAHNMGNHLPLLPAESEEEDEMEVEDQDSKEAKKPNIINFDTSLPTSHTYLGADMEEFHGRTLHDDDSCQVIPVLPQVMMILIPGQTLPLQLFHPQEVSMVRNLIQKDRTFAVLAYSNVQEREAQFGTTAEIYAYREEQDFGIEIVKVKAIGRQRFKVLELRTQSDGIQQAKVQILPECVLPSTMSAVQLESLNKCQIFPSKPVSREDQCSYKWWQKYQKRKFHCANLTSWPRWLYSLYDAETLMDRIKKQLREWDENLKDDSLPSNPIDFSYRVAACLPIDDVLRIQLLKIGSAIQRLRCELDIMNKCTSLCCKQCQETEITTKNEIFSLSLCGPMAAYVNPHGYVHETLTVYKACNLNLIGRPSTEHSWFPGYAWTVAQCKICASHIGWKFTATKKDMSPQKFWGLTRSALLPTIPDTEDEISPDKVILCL
# Sequence (Q16531 whole entry partner): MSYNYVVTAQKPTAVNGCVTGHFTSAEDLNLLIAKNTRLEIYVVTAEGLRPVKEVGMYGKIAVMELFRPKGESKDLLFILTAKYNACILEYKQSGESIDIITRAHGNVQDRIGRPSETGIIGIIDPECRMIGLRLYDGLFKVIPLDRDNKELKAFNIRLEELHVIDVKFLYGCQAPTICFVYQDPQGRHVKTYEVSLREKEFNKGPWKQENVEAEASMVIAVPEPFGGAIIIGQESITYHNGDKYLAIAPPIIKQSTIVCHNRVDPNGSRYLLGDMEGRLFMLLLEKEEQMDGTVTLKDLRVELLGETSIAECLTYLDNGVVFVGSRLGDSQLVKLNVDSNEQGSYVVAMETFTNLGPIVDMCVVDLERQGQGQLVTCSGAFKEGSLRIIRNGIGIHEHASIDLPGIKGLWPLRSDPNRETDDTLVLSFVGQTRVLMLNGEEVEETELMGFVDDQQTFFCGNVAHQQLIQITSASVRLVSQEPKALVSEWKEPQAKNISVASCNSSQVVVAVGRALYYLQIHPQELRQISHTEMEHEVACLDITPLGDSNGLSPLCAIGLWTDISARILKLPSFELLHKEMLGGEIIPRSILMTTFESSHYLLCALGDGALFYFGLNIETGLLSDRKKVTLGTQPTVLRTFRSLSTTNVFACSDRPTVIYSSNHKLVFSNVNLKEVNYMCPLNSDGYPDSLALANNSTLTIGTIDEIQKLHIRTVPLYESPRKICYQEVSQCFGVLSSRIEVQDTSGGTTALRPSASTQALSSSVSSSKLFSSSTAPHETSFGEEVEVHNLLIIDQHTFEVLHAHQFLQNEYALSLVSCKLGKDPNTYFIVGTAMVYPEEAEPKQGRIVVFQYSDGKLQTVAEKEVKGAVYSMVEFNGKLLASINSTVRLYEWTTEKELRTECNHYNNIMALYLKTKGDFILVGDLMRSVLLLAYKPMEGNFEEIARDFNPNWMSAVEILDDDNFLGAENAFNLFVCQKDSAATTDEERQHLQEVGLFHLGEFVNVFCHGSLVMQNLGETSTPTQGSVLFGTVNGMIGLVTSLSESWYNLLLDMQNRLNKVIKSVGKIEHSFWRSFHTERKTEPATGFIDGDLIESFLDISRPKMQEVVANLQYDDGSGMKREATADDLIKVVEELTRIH
# assay-method-text: Compound-induced formation of ternary complex between BCL-XL and CRBN-DDB1 by AlphaLISA
# Assay type: biochemical
# Set-up: key: the number of + indicates the intensity of AlphaLISA peak signal; ++: the number of + indicates the intensity of AlphaLISA peak signal; +++: the number of + indicates the intensity of AlphaLISA peak signal; ++++: the number of + indicates the intensity of AlphaLISA peak signal; +++++: the number of + indicates the intensity of AlphaLISA peak signal
# condition: peak signal; 60 nM Strep-BCL-XL and 60 nM His-CRBN/DDB1
measured-attribute: AlphaLISA signal (PROTAC ternary complex signal intensity)

| molecule | reported |
| --- | --- |
| C=Cc1cc(-c2ncc3c(n2)CN(C(=O)c2ccc(COc4ccc(C#CCN5CCN(CCCCCOc6cccc7c6C(=O)N(C6CCC(=O)NC6=O)C7=O)CC5)nc4)cc2)CC3)cnc1C=C (centres unmarked) | + |
| C=Cc1cc(-c2nc3c(c(NC)n2)CCN(C(=O)c2ccc(COc4ccc(C#CCN5CCN(CCCCCCNc6cccc7c6C(=O)N(C6CCC(=O)NC6=O)C7=O)CC5)cc4)cc2)C3)cnc1C=C (centres unmarked) | ++++ |
| C=Cc1cc(-c2ncc3c(n2)CN(C(=O)c2ccc(COc4ccc(C#CCN5CCN(CCCCCOc6cccc7c6C(=O)N(C6CCC(=O)NC6=O)C7=O)CC5)cc4)cn2)CC3)cnc1C=C (centres unmarked) | ++ |
| C=Cc1cc(-c2nc3c(c(NC)n2)CCN(C(=O)c2ccc(/C=C/c4ccc(C#CCN5CCN(CCCCCOc6cccc7c6C(=O)N(C6CCC(=O)NC6=O)C7=O)CC5)cc4)cc2)C3)cnc1C=C (centres unmarked) | + |

Hi! What's the reported AlphaLISA signal (PROTAC ternary complex signal intensity) for C=Cc1cc(-c2nc3c(c(NC)n2)CCN(C(=O)c2ccc(COc4ccc(C#CCN5CCN(CCCCCCOc6cccc7c6C(=O)N(C6CCC(=O)NC6=O)C7=O)CC5)cc4)cc2)C3)cnc1C=C (centres unmarked) on ternary complex between BCL-XL and CRBN-DDB1 (Homo sapiens, UniProt Q07817+Q96SW2)?
++++

====

# Tested on: MOLT-4 cells
# assay-method-text: Inhibitory activity on MOLT4 cell proliferation by Cell Titer-Glo method
# Type: cell-based
# condition: Homo sapiens, 72 hours incubation, read-out: IC50 concentration for inhibiting MOLT-4 cells
pIC50: −log10 of the molar value.
Record form. Attribute: pIC50. Fill in for each entry.

| molecule | measured-attribute | reported |
| --- | --- | --- |
| O=C1CCC(N2Cc3cc(N4CCC(CN5CCN(CC#Cc6ccc(/C=C/c7ccc(C(=O)N8CCc9cnc(-c%10cnc%11ccccc%11c%10)nc9C8)cc7)cc6)CC5)CC4)ccc3C2=O)C(=O)N1 (stereo not drawn) | pIC50 | 5.00 to 6.00 |
| CNc1nc(-c2cnc3ccccc3c2)nc2c1CCN(C(=O)c1ccc(/C=C/c3ccc(C#CCN4CCN(C(=O)CCCCCC(=O)N[C@H](C(=O)N5C[C@H](O)C[C@H]5C(=O)NCc5ccc(-c6scnc6C)cc5)C(C)(C)C)CC4)cc3)cc1)C2 | pIC50 | < 3.70 |
| C=Cc1cc(-c2ncc3c(n2)CN(C(=O)c2ccc(/C=C/c4ccc(C#CCN5CCN(C6CCN(CC#Cc7cccc8c7CN(C7CCC(=O)NC7=O)C8=O)CC6)CC5)cc4)cc2)CC3)cnc1C=C (stereo not drawn) [Compound E1-2] | pIC50 | 4.00 to 4.30 |
| O=C1CCC(N2Cc3c(C#CCCCN4CCN(CC#Cc5ccc(/C=C/c6ccc(C(=O)N7CCc8cnc(-c9cnc%10ccccc%10c9)nc8C7)cc6)cc5)CC4)cccc3C2=O)C(=O)N1 (stereo not drawn) [Compound D2-4] | pIC50 | 3.70 to 4.00 |
| O=C1CCC(N2C(=O)c3cccc(N4CC5(CC(N6CCN(CC#Cc7ccc(/C=C/c8ccc(C(=O)N9CCc%10cnc(-c%11cnc%12ccccc%12c%11)nc%10C9)cc8)cc7)CC6)C5)C4)c3C2=O)C(=O)N1 (stereo not drawn) | pIC50 | < 3.70 |

Batch request: pIC50 for each of the following molecules.
1. CNc1nc(-c2cnc3ccccc3c2)nc2c1CCN(C(=O)c1ccc(/C=C/c3ccc(C#CCN4CCN(CCCCCc5cccc6c5CN(C5CCC(=O)NC5=O)C6=O)CC4)cc3)cc1)C2 (stereo not drawn)
2. C=Cc1cc(-c2nc3c(c(NC)n2)CCN(C(=O)c2ccc(/C=C/c4ccc(C#CCN5CCN(CCCCCOc6cccc7c6C(=O)N(C6CCC(=O)NC6=O)C7=O)CC5)cc4)cc2)C3)cnc1C=C (stereo not drawn)
3. O=C1CCC(N2Cc3c(cccc3N3CC4(CC(CN5CCN(CC#Cc6ccc(/C=C/c7ccc(C(=O)N8CCc9cnc(-c%10cnc%11ccccc%11c%10)nc9C8)cc7)cc6)CC5)C4)C3)C2=O)C(=O)N1 (stereo not drawn)

5.00 to 6.00
4.00 to 4.30
3.70 to 4.00

Sample O=C1CCC(c2cccc(C#CCCN3CCN(CC#Cc4ccc(OCC56CC(C(=O)N7CCc8cnc(-c9cnc%10ccccc%10c9)nc8C7)(C5)C6)cc4)CC3)c2)C(=O)N1 (stereo not drawn) [Compound D2-16] — what was its pIC50?
5.00 to 6.00
